- Assay: in vitro
- Test conditions: African green monkey, uninfected quiescent Vero-B cells
Endpoint label: CC50 at 4 days (µM)
Response body: numeric value in µM, unit text excluded.

Past entries and their recorded results:
COc1cc(NC(C(=O)c2c[nH]c3ccccc23)c2ccc3[nH]ccc3c2)ccn1 (stereo not drawn) [CPD-097]; 12
COc1cccc(NC(C(=O)c2c[nH]c3ccccc23)c2ccc(COCN(C)C)cc2)c1 (stereo not drawn) [CPD-112]; 12
COc1cc(NC(C(=O)c2c[nH]c3ccccc23)c2cnc(OC)cn2)cc(OC)c1 (stereo not drawn) [CPD-294]; 41
COc1ccc2[nH]cc(C(=O)C(Nc3ccnc(OC)c3)c3ccccc3)c2c1 (stereo not drawn) [CPD-078]; 109
COc1cncc(NC(C(=O)c2nn(C)c3ccccc23)c2ccccc2)c1 (stereo not drawn) [CPD-259]; 14

Value of CC50 at 4 days reported for the molecule COc1cc(NC(C(=O)c2c[nH]c3ccccc23)c2cnc(OC)cn2)cc(OCCO)c1 (stereo not drawn) [CPD-292] is 68

====

- Assay: Cytotoxicity in A549 cells (MTS/PMS)
- Assay type: cell-based
- Test conditions: human; A549 cells (Table 6)
Endpoint label: CC50 at 4 days (µM)
Response body: numeric value in µM, unit text excluded.

Past entries and their recorded results:
COc1cc(NC(C(=O)c2c[nH]c3ccccc23)c2ccccc2)cc(OCCO)c1 (stereo not shown) [CPD-255]; 59
COc1cccc(NC(C(=O)c2c[nH]c3ccccc23)c2ccccc2)c1 (stereo not shown) [CPD-010]; 16

Proceeding to the next compound to report its CC50 at 4 days.
Value of CC50 at 4 days reported for the compound COc1cc(NC(C(=O)c2c[nH]c3ccccc23)c2ccc(F)cc2)cc(OCCO)c1 (stereo not shown) [CPD-350] is 63

====

- Assay: in vitro
- Test conditions: African green monkey, uninfected quiescent Vero-B cells
Mark each entry Criterion met if its CC50 at 4 days sits below 60 µM, and Criterion not met for all others.

Sample answers from the record:
COc1ccc2c(C(=O)C(Nc3ccnc(OC)c3)c3ccccc3)c[nH]c2c1 (stereo not drawn); Criterion not met
COc1cncc(NC(C(=O)c2c[nH]c3cc(F)ccc23)c2ccccc2)n1 (stereo not drawn); Criterion not met
COc1cc(NC(C(=O)c2csc3ccccc23)c2cn3ccccc3n2)ccn1 (stereo not drawn); Criterion not met
O=C(c1c[nH]c2ccccc12)C(Nc1ccc(F)c(F)c1)c1ccccc1 (stereo not drawn); Criterion met
COc1cc(NC(C(=O)c2c[nH]c3ccccc23)c2ccccc2)cc(OCCO)c1 (stereo not drawn); Criterion not met

In plain terms, does COc1cc(NC(C(=O)c2c[nH]c3ccccc23)c2ccc(OC)nc2)cc(OCCO)c1 (stereo not drawn) come in under 60 µM for CC50 at 4 days? Criterion met

In plain terms, does CCS(=O)(=O)n1cc(C(=O)C(Nc2cccc(OC)c2)c2ccccc2)c2ccccc21 (stereo not drawn) come in under 60 µM for CC50 at 4 days? Criterion not met

In plain terms, does COc1cccc(NC(C(=O)c2c[nH]c3ccccc23)c2c(F)cc(C#N)cc2F)c1 (stereo not drawn) come in under 60 µM for CC50 at 4 days? Criterion met

In plain terms, does COc1cccc(NC(C(=O)c2c[nH]c3ccccc23)c2cccnc2OC)c1 (stereo not drawn) come in under 60 µM for CC50 at 4 days? Criterion met

====

The entries below come with measured CC50 at 4 days values attached.
- Assay: in vitro
- Test conditions: African green monkey, uninfected quiescent Vero-B cells
Response body: numeric value in µM, unit text excluded.

Value of CC50 at 4 days reported for the compound COc1cccc(NC(C(=O)c2c[nH]c3ccncc23)c2ccccc2)c1 (stereo not drawn) is 74
